Target: T1, SCAF4-CID (human, UniProt O95104 1-139)
T1 sequence: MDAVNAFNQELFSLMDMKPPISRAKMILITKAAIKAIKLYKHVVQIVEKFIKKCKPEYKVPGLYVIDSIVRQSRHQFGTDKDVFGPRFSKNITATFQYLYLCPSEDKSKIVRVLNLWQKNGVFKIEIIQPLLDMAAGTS
Assay: competition FP
Parameter IC50: see the listing below.
Answer shape: numeric part, then the unit.

Please review the following examples before continuing.
binder="GGTGGGGA (ssDNA) [F1_8-nt]" result="554 nM"
binder="CAGGTGGGTTC (ssDNA) [SRiApt-2 (F7_11-nt_B)]" result="400 nM"
binder="TTAAAGGGGTGGGGAGTCAT (ssDNA) [SRiApt-3]" result="285 nM"
binder="TGGTGGGA (ssDNA) [D1_8-nt]" result="1270 nM"

AGGTGGGT (ssDNA) [B2_8-nt] has a reported IC50 of 1040 nM
